Let's look at some variants and their measured normalized RNA/DNA level without ligand (log10).
B1: library; a variant is named by its letters at N, in order (parent)
chain: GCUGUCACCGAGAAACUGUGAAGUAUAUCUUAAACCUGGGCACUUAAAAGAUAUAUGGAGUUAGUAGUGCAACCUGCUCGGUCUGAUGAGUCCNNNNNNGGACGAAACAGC

Variants of: B1
Assay: normalized RNA/DNA level without ligand (relative to sTRSVctl = 100) (log10 (% of sTRSVctl)); HEK293T; ligand: cyclic di-GMP (c-di-GMP-II aptamer); higher = less ribozyme self-cleavage, higher mRNA level
Settings: reporter: mCherry (pCS4076), ligand present: no

The cases that follow already have their normalized RNA/DNA level without ligand (log10) on record.
# mutantDesignation, experimentalValue
rows = [
    ("CAAUUG", 1.73),
    ("AACGAU", 1.57),
]

Exercise: GET /values?readout=normalized RNA/DNA level without ligand (log10)&item= `AUAGAU`
Key: 1.58

Exercise: GET /values?readout=normalized RNA/DNA level without ligand (log10)&item= `AGCAAU`
Key: 1.74
